The reported measurements were obtained from patent US4943574A.

Molecular target: aromatase (Homo sapiens)
Sequence (P11511 whole entry): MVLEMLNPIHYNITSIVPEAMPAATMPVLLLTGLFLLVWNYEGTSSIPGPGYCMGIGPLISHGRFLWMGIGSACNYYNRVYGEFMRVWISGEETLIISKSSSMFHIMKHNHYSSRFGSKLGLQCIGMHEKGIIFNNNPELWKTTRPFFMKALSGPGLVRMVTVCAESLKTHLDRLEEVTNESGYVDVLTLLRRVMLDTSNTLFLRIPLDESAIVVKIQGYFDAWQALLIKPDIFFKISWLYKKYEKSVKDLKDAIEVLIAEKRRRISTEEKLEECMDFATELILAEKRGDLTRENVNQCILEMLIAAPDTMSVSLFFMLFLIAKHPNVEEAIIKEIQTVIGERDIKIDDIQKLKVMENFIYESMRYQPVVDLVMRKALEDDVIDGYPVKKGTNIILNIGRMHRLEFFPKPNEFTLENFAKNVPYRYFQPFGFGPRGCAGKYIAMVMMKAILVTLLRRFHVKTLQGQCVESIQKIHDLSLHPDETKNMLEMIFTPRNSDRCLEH
Assay: biochemical
Conditions: human placental microsomes, 30 min at 37° C., pH 7.4, 1,2[3H]androstenedione; read-out: IC50-values (concentration of the compound required to obtain 50% inhibition of the estrogen synthesis)
observable: IC50 (µM)

compound	units symbol	IC50
CC(C)CCn1nnc2ccc(Cn3ccnc3)cc21	µM	0.0105
CCCCOn1nnc2ccc(Cn3ccnc3)cc21.Cl [Compound 226, monohydrochloride]	µM	0.0067
Cn1nnc2ccc(C(c3cccc(F)c3)n3ccnc3)cc21 (stereo not drawn)	µM	0.0246
CCCCn1nnc2ccc(C(c3ccc(F)cc3)n3ccnc3)cc21 (stereo not drawn)	µM	0.0182
c1ccc2c(c1)CCCC2n1nnc2ccc(Cn3ccnc3)cc21 (stereo not drawn)	µM	0.0198

[P] Cn1nnc2ccc(C(c3ccc(Br)cc3)n3ccnc3)cc21 (stereo not drawn)
[Q] CC(C)On1nnc2ccc(Cn3ccnc3)cc21
[R] CC(C)n1nnc2ccc(C(c3ccccc3)n3ccnc3)cc21.O=C(O)C(=O)O (stereo not drawn)
Qu. Please produce an ascending ranking of these compounds based on IC50. // respond by listing labels in the order requested
Ans. Q, P, R
(Q: 0.012 µM, P: 0.0222 µM, R: 0.0347 µM)

[I] Cn1nnc2ccc(C(c3ccc(C(F)(F)F)cc3)n3ccnc3)cc21 (stereo not drawn)
[II] CCn1nnc2ccc(Cn3ccnc3)cc21
Qu. Could you check which of I and II has a smaller value for IC50? Please identify the chosen entry by its label.
Ans. I

[1] Cn1nnc2ccc(C(c3ccccc3Cl)n3ccnc3)cc21 (stereo not drawn)
[2] BrCCOn1nnc2ccc(Cn3ccnc3)cc21
[3] c1ccc(COn2nnc3ccc(Cn4ccnc4)cc32)cc1
Qu. Please produce an ascending ranking of these compounds based on IC50. // respond by listing labels in the order requested
Ans. 3, 2, 1

[A] Cn1nnc2ccc(C(c3ccccc3)n3ccnc3)cc21 (stereo not drawn) [Compound 90]
[B] CC(C)CCn1nnc2ccc(C(c3ccc(Cl)cc3)n3ccnc3)cc21 (stereo not drawn)
Qu. Between these two entries, A and B , state which has the higher IC50. Please identify the chosen entry by its label.
Ans. A
